meta.source: patent US11540518B2

Give Test A disease control rating for every item shown.
Test system: Phakopsora pachyrhizi
Test: Test A: Asian soybean rust control on soybean seedlings
Assay type: in vivo
Conditions: 10 ppm, sprayed to run-off on soybean seedlings, inoculated the following day; 100 = 100% disease control, 0 = no control
Answers are plain numbers, in %.

Here's what some known entries look like.
{"compound": "C#CCCNC(=O)OCc1ccc(-c2noc(C(F)(F)F)n2)cc1", "system_under_test": "Phakopsora pachyrhizi", "u": "%", "numeric_result": 100}
{"compound": "C#CCNC(=O)OCc1ccc(-c2noc(C(F)(F)F)n2)o1", "system_under_test": "Phakopsora pachyrhizi", "u": "%", "numeric_result": 0}
{"compound": "CCCNC(=O)OCc1ccc(-c2noc(C(F)(F)F)n2)s1", "system_under_test": "Phakopsora pachyrhizi", "u": "%", "numeric_result": 99}
{"compound": "COCCNC(=O)OC(c1ccccc1)c1ccc(-c2noc(C(F)(F)F)n2)cc1 (stereo not shown)", "system_under_test": "Phakopsora pachyrhizi", "u": "%", "numeric_result": 100}
{"compound": "COC(=O)c1ccc(CNC(=O)OCc2ccc(-c3noc(C(F)(F)F)n3)cc2)cc1", "system_under_test": "Phakopsora pachyrhizi", "u": "%", "numeric_result": 13}
{"compound": "CCNC(=O)OCc1ccc(-c2noc(C(F)(F)F)n2)s1", "system_under_test": "Phakopsora pachyrhizi", "u": "%", "numeric_result": 96}
{"compound": "CC(OC(=O)NC1CC1)c1ccc(-c2noc(C(F)(F)F)n2)cc1 (stereo not shown)", "system_under_test": "Phakopsora pachyrhizi", "u": "%", "numeric_result": 100}
{"compound": "CN(C)C(=O)OCCc1ccc(-c2noc(C(F)(F)F)n2)cc1", "system_under_test": "Phakopsora pachyrhizi", "u": "%", "numeric_result": 100}
{"compound": "CC(OC(=O)N(C)C)c1ccc(-c2noc(C(F)(F)F)n2)cc1 (stereo not shown)", "system_under_test": "Phakopsora pachyrhizi", "u": "%", "numeric_result": 100}
{"compound": "CCNC(=O)OC(COC)Cc1ccc(-c2noc(C(F)(F)F)n2)cc1 (stereo not shown)", "system_under_test": "Phakopsora pachyrhizi", "u": "%", "numeric_result": 100}

Provide the reported Test A disease control rating of each entry below, same order.
1. CCCNC(=O)OC(C)c1ccc(-c2noc(C(F)(F)F)n2)s1 (stereo not shown)
2. CCOC(=O)NC(=O)OCCc1ccc(-c2noc(C(F)(F)F)n2)cc1
3. O=C(Nc1cccnc1)OCc1ccc(-c2noc(C(F)(F)F)n2)cc1

[100, 100, 99]

State recorded Test A disease control rating for all listed compounds.
1. CCN(CC)C(=O)OCc1ccc(-c2noc(C(F)(F)F)n2)cc1
2. N#CCNC(=O)OCc1ccc(-c2noc(C(F)(F)F)n2)cc1
3. O=C(OC(c1ccc(-c2noc(C(F)(F)F)n2)cc1)c1cccc(Cl)c1)n1ccnc1 (stereo not shown)
4. C#CCNC(=O)OC(C)c1ccc(-c2noc(C(F)(F)F)n2)cc1 (stereo not shown)
5. C#CCNC(=O)OC(C)c1ccc(-c2noc(C(F)(F)F)n2)s1 (stereo not shown)
6. C#CCN(C)C(=O)OCc1ccc(-c2noc(C(F)(F)F)n2)cc1
7. C#CCNC(=O)OCCCc1ccc(-c2noc(C(F)(F)F)n2)cc1

100
100
99
100
100
100
100

Required: Test A disease control rating, one value per compound below.
1. CNC(=O)OCCCc1ccc(-c2noc(C(F)(F)F)n2)cc1
2. CNC(=O)OCCc1ccc(-c2noc(C(F)(F)F)n2)cc1
3. NC(=O)OCc1ccc(-c2noc(C(F)(F)F)n2)o1
4. CCNC(=O)OC(C)c1ccc(-c2noc(C(F)(F)F)n2)cc1 (racemic)
5. CCCNC(=O)OC(C)c1ccc(-c2noc(C(F)(F)F)n2)cc1 (stereo not shown)
6. COC(=O)NN=C(C)c1ccc(-c2noc(C(F)(F)F)n2)cc1
7. CC(C)(C)OC(=O)NN=Cc1ccc(-c2noc(C(F)(F)F)n2)cc1
8. CCN(C)C(=O)OCc1ccc(-c2noc(C(F)(F)F)n2)cc1

1. 100
2. 100
3. 0
4. 100
5. 100
6. 92
7. 97
8. 100

State the recorded Test A disease control rating for every item in the following list.
1. CCOC(=O)NC(=O)OCc1ccc(-c2noc(C(F)(F)F)n2)cc1
2. Cc1ccccc1C(OC(=O)n1ccnc1)c1ccc(-c2noc(C(F)(F)F)n2)cc1 (stereo not shown)

[100, 98]

Please supply Test A disease control rating for each of the following items, keeping them in order.
1. NC(=O)OCCc1ccc(-c2noc(C(F)(F)F)n2)cc1
2. C=CCNC(=O)OCc1ccc(-c2noc(C(F)(F)F)n2)cc1
3. C=CCNC(=O)OCCCc1ccc(-c2noc(C(F)(F)F)n2)cc1
4. CNC(=O)OC(C)c1ccc(-c2noc(C(F)(F)F)n2)cc1 (stereo not shown)
5. CCNC(=O)OCCCc1ccc(-c2noc(C(F)(F)F)n2)cc1
6. CCOC(=O)c1ccc(CNC(=O)OCc2ccc(-c3noc(C(F)(F)F)n3)cc2)cc1

[100, 100, 100, 100, 100, 95]

// fetch Test A disease control rating given entry CCOC(=O)NN=Cc1ccc(-c2noc(C(F)(F)F)n2)cc1
100

----------
System: Zymoseptoria tritici
Assay: Test B: wheat leaf blotch control on wheat seedlings
Assay type: in vivo
Details: 260 ppm, sprayed to run-off on wheat seedlings, inoculated the following day; 100 = 100% disease control, 0 = no control
Where Test B disease control rating equals or exceeds 90%, the correct label is 1 (yes); where it does not, the label is 0 (no).

Past entries and their recorded results:
{"molecule": "CCNC(=O)OCc1ccc(-c2noc(C(F)(F)F)n2)cc1", "category_label": "1 (yes)"}
{"molecule": "O=C(NCc1ccccc1)OCc1ccc(-c2noc(C(F)(F)F)n2)cc1", "category_label": "0 (no)"}
{"molecule": "O=C(NCCCl)OCc1ccc(-c2noc(C(F)(F)F)n2)cc1", "category_label": "1 (yes)"}
{"molecule": "CCOC(=O)CNC(=O)OCc1ccc(-c2noc(C(F)(F)F)n2)cc1", "category_label": "0 (no)"}
{"molecule": "CNC(=O)OCc1ccc(-c2noc(C(F)(F)F)n2)cc1", "category_label": "1 (yes)"}
{"molecule": "CN(C)C(=O)OCc1ccc(-c2noc(C(F)(F)F)n2)cc1", "category_label": "0 (no)"}

Kindly determine if Test B disease control rating recorded for CCNC(=O)OCC(OC)c1ccc(-c2noc(C(F)(F)F)n2)cc1 (racemic) is above or exactly 90%.
0 (no)

----------
Tested on: Phakopsora pachyrhizi
Test: Test A: Asian soybean rust control on soybean seedlings
Assay type: in vivo
Conditions: 10 ppm, sprayed to run-off on soybean seedlings, inoculated the following day; 100 = 100% disease control, 0 = no control
What Test A disease control rating was measured for each of the following?
Please make sure the unit comes right after the number.

{"molecule": "CC#CCNC(=O)OCc1ccc(-c2noc(C(F)(F)F)n2)cc1 [Compound 36]", "system_under_test": "Phakopsora pachyrhizi", "Test A disease control rating": "100%"}
{"molecule": "CC(OC(N)=O)c1ccc(-c2noc(C(F)(F)F)n2)cc1 (centres unmarked) [Compound 84]", "system_under_test": "Phakopsora pachyrhizi", "Test A disease control rating": "100%"}
{"molecule": "CCOC(=O)c1ccc(CNC(=O)OC(C)c2ccc(-c3noc(C(F)(F)F)n3)cc2)cc1 (racemic) [Compound 27]", "system_under_test": "Phakopsora pachyrhizi", "Test A disease control rating": "100%"}
{"molecule": "COC(=O)c1ccc(CNC(=O)OC(C)c2ccc(-c3noc(C(F)(F)F)n3)cc2)cc1 (racemic) [Compound 25]", "system_under_test": "Phakopsora pachyrhizi", "Test A disease control rating": "100%"}
{"molecule": "C#CCNC(=O)OCCc1ccc(-c2noc(C(F)(F)F)n2)cc1 [Compound 45]", "system_under_test": "Phakopsora pachyrhizi", "Test A disease control rating": "100%"}

For each listed entry, give its Test A disease control rating.
1. CONC(=O)OCc1ccc(-c2noc(C(F)(F)F)n2)cc1 [Compound 136]
2. CCOC(=O)c1ccc(NC(=O)OCc2ccc(-c3noc(C(F)(F)F)n3)cc2)cc1 [Compound 57]
3. CN(C)C(=O)OCCCc1ccc(-c2noc(C(F)(F)F)n2)cc1 [Compound 28]
4. CNC(=O)OCc1ccc(-c2noc(C(F)(F)F)n2)s1 [Compound 38]
5. CC(OC(=O)n1ccnc1)c1ccc(-c2noc(C(F)(F)F)n2)cc1 (centres unmarked) [Compound 70]
6. O=C(NC1CC1)OCc1ccc(-c2noc(C(F)(F)F)n2)cc1 [Compound 54]

79%
100%
100%
94%
99%
100%

----------
System: Puccinia recondita f. sp. tritici
Assay: Test C: wheat leaf rust control on wheat seedlings
Format: in vivo
Settings: 50 ppm, sprayed to run-off on wheat seedlings, inoculated the following day; 100 = 100% disease control, 0 = no control
readout_kind: Test C disease control rating (%)
Give bare numbers, in %.

Below, each entry is followed by its recorded Test C disease control rating result.
{"molecule": "C#CCNC(=O)OCc1ccc(-c2noc(C(F)(F)F)n2)s1 [Compound 37]", "numeric_result": 100}
{"molecule": "CC#CCNC(=O)OCCc1ccc(-c2noc(C(F)(F)F)n2)cc1 [Compound 63]", "numeric_result": 100}
{"molecule": "CN(N=Cc1ccc(-c2noc(C(F)(F)F)n2)cc1)C(=O)OC(C)(C)C [Compound 109]", "numeric_result": 95}
{"molecule": "C#CCCNC(=O)OCCCc1ccc(-c2noc(C(F)(F)F)n2)cc1 [Compound 65]", "numeric_result": 100}
{"molecule": "CCOC(=O)c1ccc(NC(=O)OCCc2ccc(-c3noc(C(F)(F)F)n3)cc2)cc1 [Compound 59]", "numeric_result": 0}
{"molecule": "COc1ccc(C(OC(=O)n2ccnc2)c2ccc(-c3noc(C(F)(F)F)n3)cc2)cc1 (stereo not drawn) [Compound 83]", "numeric_result": 100}

Below is a list of molecules. For each, state its recorded Test C disease control rating.
1. CCOC(=O)c1ccc(CNC(=O)OCCc2ccc(-c3noc(C(F)(F)F)n3)cc2)cc1 [Compound 68]
2. O=C(Nc1cccnc1)OCCc1ccc(-c2noc(C(F)(F)F)n2)cc1 [Compound 34]

1. 0
2. 98

Please look at this molecule and report its Test C disease control rating: O=C(OCCCc1ccc(-c2noc(C(F)(F)F)n2)cc1)n1ccnc1 [Compound 21]
99
